Entry source: patent US20050038007A1

experiment: Aqueous solubility of torcetrapib; assay type: physicochemical; conditions: water (aqueous), at about 22° C.
Endpoint: solubility

Enquiry: Sample CCOC(=O)N1c2ccc(C(F)(F)F)cc2[C@@H](N(Cc2cc(C(F)(F)F)cc(C(F)(F)F)c2)C(=O)OC)C[C@H]1CC — what was its solubility?
Return: < 0.04 µg/mL
